# assayComment: in vivo
# measurementParameters: male, Swiss Albino, mouse, iv, 1 mg/kg, Plasma concentration
Where a SMILES comes first, the peptide text is derived from it. [ ]: non-standard residue; d: D form. dNMeI = CC[C@@H](C)[C@@H](NC)C(=O)O; NMeL = CN[C@@H](CC(C)C)C(=O)O
outcomeMeasure: level at 24 h (ng/mL)
Could you give me the number in ng/mL? Just the number is fine.

Task item: level at 24 h lookup needed for CC[C@@H](C)[C@H]1NC(=O)[C@H]([C@@H](C)CC)NC(=O)[C@H](CC(C)C)N(C)C(=O)[C@H]2CCCN2C(=O)[C@@H]([C@H](C)CC)NC(=O)[C@@H]([C@H](C)CC)N(C)C(=O)[C@H](CC(C)C)NC(=O)[C@H]2CCCN2C(=O)[C@@H]2CCCN2C(=O)[C@H](C(C)C)NC(=O)[C@H]2CCCN2C1=O [Design D11.3, VPpL*iip*LIip] (cyclo(I[dI][dP]VP[dP]L[dNMeI][dI][dP][NMeL])) , thanks.
Reply: 27.6

----------
# assayComment: Pharmacokinetics of D10.1 after PO, SQ and IV dosing in mice
# measurementParameters: female, Balb/C, mouse, plasma, po, 12.2 mg/kg
outcomeMeasure: level at time molar at 4 h (nM)
Could you give me the number in nM? Just the number is fine.

Task item: level at time molar at 4 h lookup needed for CC[C@H](C)[C@@H]1NC(=O)[C@@H](CC(C)C)NC(=O)[C@H](CC(C)C)N(C)C(=O)[C@H](Cc2ccccc2)NC(=O)CN(C)C(=O)[C@@H]2CCCN2C(=O)[C@H](C(C)C)NC(=O)[C@H](Cc2ccccc2)N(C)C(=O)[C@H]2CCCN2C(=O)[C@H](CC(C)C)NC1=O [Design D10.1, lILp*FVP*GF*L] , thanks.
Reply: 160

----------
# assayComment: in vivo
# measurementParameters: male, Swiss Albino, mouse, sc, 5 mg/kg, Plasma concentration
Where a SMILES comes first, the peptide text is derived from it. [ ]: non-standard residue; d: D form. dNMeI = CC[C@@H](C)[C@@H](NC)C(=O)O; NMeL = CN[C@@H](CC(C)C)C(=O)O
outcomeMeasure: level at 8 h (ng/mL)
Could you give me the number in ng/mL? Just the number is fine.

Task item: level at 8 h lookup needed for CC[C@@H](C)[C@H]1NC(=O)[C@H]([C@@H](C)CC)NC(=O)[C@H](CC(C)C)N(C)C(=O)[C@H]2CCCN2C(=O)[C@@H]([C@H](C)CC)NC(=O)[C@@H]([C@H](C)CC)N(C)C(=O)[C@H](CC(C)C)NC(=O)[C@H]2CCCN2C(=O)[C@@H]2CCCN2C(=O)[C@H](C(C)C)NC(=O)[C@H]2CCCN2C1=O [Design D11.3, VPpL*iip*LIip] (cyclo(I[dI][dP]VP[dP]L[dNMeI][dI][dP][NMeL])) , thanks.
Reply: 114

----------
# measurementParameters: PAMPA, PAMPA_Papp_Avg (apparent permeability)
Where a SMILES comes first, the peptide text is derived from it. [ ]: non-standard residue; d: D form. NMeF = CN[C@@H](Cc1ccccc1)C(=O)O; NMeL = CN[C@@H](CC(C)C)C(=O)O; dNMeA = CN[C@H](C)C(=O)O
outcomeMeasure: Papp (×10⁻⁶ cm/s)
Could you give me the number in ×10⁻⁶ cm/s? Just the number is fine.

compound="CC(C)C[C@@H]1NC(=O)[C@H](Cc2ccccc2)NC(=O)[C@@H](CC(C)C)NC(=O)[C@H]2CCCN2C(=O)[C@H](C(C)C)NC(=O)[C@@H](CC(C)C)NC(=O)[C@H]2CCCN2C(=O)[C@@H]2CCCN2C1=O [Design D8.5, FLPplVpl] (cyclo(FLP[dP][dL]V[dP][dL]))" outcomemeasure=Papp obsvalue=6.31

Task item: Papp lookup needed for CSCC[C@@H]1NC(=O)[C@H](CC(C)C)NC(=O)[C@@H]2CCCN2C(=O)[C@H]2CCCN2C(=O)[C@@H](C)NC(=O)[C@H]2CCCN2C(=O)[C@@H](CC(C)C)NC(=O)[C@@H](C)N(C)C(=O)[C@H](CC(C)C)N(C)C(=O)[C@@H](C)N(C)C1=O [Design D10.40, M*a*L*alpapPL] (cyclo(LM[dNMeA][NMeL][dNMeA][dL][dP][dA][dP]P)) , thanks.
Reply: 0.34

Task item: Papp lookup needed for CC[C@H](C)[C@@H]1NC(=O)[C@H](Cc2ccccc2)N(C)C(=O)[C@H]2CCCN2C(=O)[C@H]([C@@H](C)CC)NC(=O)[C@@H](C)N(C)C(=O)[C@@H](C)NC(=O)[C@@H]2CCCN2C(=O)[C@H]2CCCN2C(=O)[C@H](CC(C)C)NC(=O)[C@@H](CC(C)C)NC(=O)[C@H](CC(C)C)NC(=O)[C@H]2CCCN2C1=O [Design D12.6, p*FIpLILpPa*aI] (cyclo([dA][dNMeA]I[dP][NMeF]I[dP]L[dL]L[dP]P)) , thanks.
Reply: 1.39

----------
Recorded Papp for the following molecules
# measurementParameters: PAMPA, PAMPA_Papp_Avg (apparent permeability)
Where a SMILES comes first, the peptide text is derived from it. [ ]: non-standard residue; d: D form. NMeL = CN[C@@H](CC(C)C)C(=O)O; dNMeL = CN[C@H](CC(C)C)C(=O)O; NMeA = CN[C@@H](C)C(=O)O; dNMeA = CN[C@H](C)C(=O)O
Could you give me the number in nm/s? Just the number is fine.

molecule="CC[C@@H](C)[C@H]1NC(=O)[C@H](C(C)C)NC(=O)[C@H]2CCCN2C(=O)[C@@H]2CCCN2C(=O)[C@H](CC(C)C)N(C)C(=O)[C@H](C)N(C)C(=O)[C@@H](CC(C)C)N(C)C(=O)[C@H](C)NC(=O)[C@@H](Cc2ccccc2)NC(=O)[C@@H]2CCCN2C1=O [Design D10.25, fA*l*A*LPpViP] (cyclo(A[dNMeL][NMeA][NMeL]P[dP]V[dI]P[dF]))" outcomemeasure=Papp unitsofmeasure=nm/s obsvalue=7.56

Attention now turns to another entry.
Task item: Papp lookup needed for CC[C@H](C)[C@@H]1NC(=O)[C@@H](C)N(C)C(=O)[C@H]2CCCN2C(=O)[C@H]2CCCN2C(=O)[C@H](Cc2ccccc2)NC(=O)[C@@H](CC(C)C)NC(=O)[C@@H](CC(C)C)N(C)C(=O)[C@@H]2CCCN2C1=O [Design D8.17, P*llFpp*aI] (cyclo(F[dP][dP][dNMeA]IP[dNMeL][dL])) , thanks.
Reply: 9.5

----------
Where a SMILES comes first, the peptide text is derived from it. [ ]: non-standard residue; d: D form. NMeL = CN[C@@H](CC(C)C)C(=O)O; dNMeL = CN[C@H](CC(C)C)C(=O)O; dNMeA = CN[C@H](C)C(=O)O
outcomeMeasure: membrane permeability in PAMPA (in words)

compound="CC(C)C[C@@H]1NC(=O)[C@H]2CCCN2C(=O)[C@H](CC(C)C)N(C)C(=O)[C@@H](C(C)C)NC(=O)[C@H](CC(C)C)NC(=O)[C@H]2CCCN2C(=O)[C@H](CC(C)C)N(C)C(=O)[C@@H](C(C)C)NC1=O [Design D8.21, v*LpLv*LpL] (cyclo(L[dV][NMeL][dP]L[dV][NMeL][dP]))" obsvalue="significant permeability"
compound="CC(C)C[C@@H]1NC(=O)[C@H]2CCCN2C(=O)[C@@H](CC(C)C)NC(=O)[C@@H](CC(C)C)NC(=O)[C@@H](CC(C)C)N(C)C(=O)[C@H](C(C)C)NC(=O)[C@@H](C)NC(=O)[C@@H](C)N(C)C(=O)[C@@H]2CCCN2C1=O [Design D9.16, P*aaV*lllpL] (cyclo(LP[dNMeA][dA]V[dNMeL][dL][dL][dP]))" obsvalue="significant permeability"

----------
# measurementParameters: PAMPA, PAMPA_Papp_Avg (apparent permeability)
Where a SMILES comes first, the peptide text is derived from it. [ ]: non-standard residue; d: D form. dNMeL = CN[C@H](CC(C)C)C(=O)O; NMeA = CN[C@@H](C)C(=O)O; dNMeA = CN[C@H](C)C(=O)O
Recorded Papp for the following molecules
Could you give me the number in ×10⁻⁶ cm/s? Just the number is fine.

Some molecules with known Papp results, for comparison:
molecule="CC[C@H](C)[C@@H]1NC(=O)[C@H]2CCCN2C(=O)[C@@H]2CCCN2C(=O)[C@@H](C(C)C)NC(=O)[C@@H](C)N(C)C(=O)[C@H](C)N(C)C(=O)[C@@H](CC(C)C)N(C)C(=O)[C@@H](C(C)C)NC1=O [Design D8.26, v*l*A*avPpI] (cyclo(I[dV][dNMeL][NMeA][dNMeA][dV]P[dP]))" obsvalue=0.544
molecule="CC[C@@H](C)[C@H]1NC(=O)[C@H](CC(C)C)NC(=O)[C@@H](C)N(C)C(=O)[C@@H]2CCCN2C(=O)[C@H](C)NC(=O)[C@@H](CC(C)C)NC(=O)[C@H]2CCCN2C(=O)[C@H](C(C)C)NC(=O)[C@@H](CC(C)C)N(C)C1=O [Design D9.30, plAP*aLi*lV] (cyclo(AP[dNMeA]L[dI][dNMeL]V[dP][dL]))" obsvalue=1.6

Attention now turns to another entry.
Task item: Papp lookup needed for CC(C)C[C@@H]1NC(=O)[C@@H](C(C)C)NC(=O)[C@H](CC(C)C)N(C)C(=O)[C@H]2CCCN2C(=O)[C@@H](C(C)C)NC(=O)[C@H]2CCCN2C(=O)[C@@H](C(C)C)NC(=O)[C@@H](Cc2ccccc2)N(C)C(=O)[C@H](CC(C)C)N(C)C1=O (single isomer, unassigned) [Design D9.8.p2, *LvL*L*fvpvp] , thanks.
Reply: 0.255
